- ASSAY_NOTES: Pharmacokinetics of intraperitoneal or intravenous injection in CD1 mice (plasma, LC/MS/MS)
- Assay type: in vivo
- CONDITION_SUMMARY: male, CD1, mouse, plasma, iv, 1 mg/kg, IV 1.0 mg/kg, 24 h, read-out: Conc. Mouse 3
REPORTED_ENDPOINT: concentration at 24 h (ng/mL)

# MOL_SMILES, READING
measured = [
    ("COc1cc2c(Oc3ccc(NC(=O)C4(C(=O)Nc5ccc(F)cc5)CC4)cc3F)ccnc2cc1OCCCOCCCOCCC(=O)N[C@H](C(=O)N1C[C@H](O)C[C@H]1C(=O)NCc1ccc(-c2scnc2C)cc1)C(C)(C)C", 0.971),
]

====

Overview of recorded Dmax for various compounds
- ASSAY_SYSTEM: p38α (Homo sapiens, UniProt Q16539)
- Construct: selectively degrades p38α, whereas exemplary PROTAC 46 (10-atom linker, phenyl attachment) selectively degrades p38δ in MDA-MB-231 cells; endogenous in cells; host or cells: MDA-MB-231
- Sequence (Q16539 whole entry): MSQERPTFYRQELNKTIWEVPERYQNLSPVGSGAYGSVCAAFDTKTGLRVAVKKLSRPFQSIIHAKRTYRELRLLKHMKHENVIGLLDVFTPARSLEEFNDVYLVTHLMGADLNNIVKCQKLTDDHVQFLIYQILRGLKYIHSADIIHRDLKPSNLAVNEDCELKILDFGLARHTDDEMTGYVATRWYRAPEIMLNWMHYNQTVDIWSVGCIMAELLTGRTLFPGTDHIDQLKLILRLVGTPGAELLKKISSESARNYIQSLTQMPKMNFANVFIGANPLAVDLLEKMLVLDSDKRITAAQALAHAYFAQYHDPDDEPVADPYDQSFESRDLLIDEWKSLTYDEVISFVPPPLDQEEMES
- ASSAY_NOTES: Cellular assay of target protein degradation (MDA-MB-231 cells, ELISA)
- Format: cell-based

# COMPOUND, Dmax (%)
rows = [
    ("COc1cc2c(Oc3ccc(NC(=O)C4(C(=O)Nc5ccc(F)cc5)CC4)cc3F)ccnc2cc1OCCOCCOCCC(=O)N[C@H](C(=O)N1C[C@H](O)C[C@H]1C(=O)NCc1ccc(-c2scnc2C)cc1)C(C)(C)C [Ex. 49]", 91),
    ("COc1cc2c(Oc3ccc(NC(=O)C4(C(=O)Nc5ccc(F)cc5)CC4)cc3F)ccnc2cc1OCCCOCCOCCC(=O)N[C@H](C(=O)N1C[C@H](O)C[C@H]1C(=O)NCc1ccc(-c2scnc2C)cc1)C(C)(C)C [Ex. 48]", 99),
    ("COc1cc2c(Oc3ccc(NC(=O)C4(C(=O)Nc5ccc(F)cc5)CC4)cc3F)ccnc2cc1OCCCOCCCOCCCOc1cc(-c2scnc2C)ccc1CNC(=O)[C@@H]1C[C@@H](O)CN1C(=O)[C@H](C(C)C)N1Cc2ccccc2C1=O [Ex. 47]", 12),
    ("COc1cc2c(Oc3ccc(NC(=O)C4(C(=O)Nc5ccc(F)cc5)CC4)cc3F)ccnc2cc1OCCOCCOCCOc1cc(-c2scnc2C)ccc1CNC(=O)[C@@H]1C[C@@H](O)CN1C(=O)[C@H](C(C)C)N1Cc2ccccc2C1=O [compound 46]", 33),
    ("COc1cc2c(Oc3ccc(NC(=O)C4(C(=O)Nc5ccc(F)cc5)CC4)cc3F)ccnc2cc1OCCCCOCCCCOCC(=O)N[C@H](C(=O)N1C[C@H](O)C[C@H]1C(=O)NCc1ccc(-c2scnc2C)cc1)C(C)(C)C [compound 50]", 99),
    ("COc1cc2c(Oc3ccc(NC(=O)C4(C(=O)Nc5ccc(F)cc5)CC4)cc3F)ccnc2cc1OCCCCOCCCCOc1cc(-c2scnc2C)ccc1CNC(=O)[C@@H]1C[C@@H](O)CN1C(=O)[C@H](C(C)C)N1Cc2ccccc2C1=O [Ex. 45]", 27),
]

====

- ASSAY_NOTES: Pharmacokinetics of intraperitoneal or intravenous injection in CD1 mice (plasma, LC/MS/MS)
- Format: in vivo
- CONDITION_SUMMARY: male, CD1, mouse, plasma, iv, 1 mg/kg, IV 1.0 mg/kg, 0.083 h, read-out: Conc. Mouse 3

# MOL_SMILES, concentration at 0.083 h (ng/mL)
rows = [
    ("COc1cc2c(Oc3ccc(NC(=O)C4(C(=O)Nc5ccc(F)cc5)CC4)cc3F)ccnc2cc1OCCCOCCCOCCC(=O)N[C@H](C(=O)N1C[C@H](O)C[C@H]1C(=O)NCc1ccc(-c2scnc2C)cc1)C(C)(C)C", 1590),
]

====

- ASSAY_NOTES: Pharmacokinetics of intraperitoneal or intravenous injection in CD1 mice (plasma, LC/MS/MS)
- Type: in vivo
- CONDITION_SUMMARY: male, CD1, mouse, plasma, iv, 1 mg/kg, IV 1.0 mg/kg, 0.033 h, read-out: Conc. Mouse 3

# COMPOUND, UNIT_OF_MEASUREMENT, concentration at 0.033 h
records = [
    ("COc1cc2c(Oc3ccc(NC(=O)C4(C(=O)Nc5ccc(F)cc5)CC4)cc3F)ccnc2cc1OCCCOCCCOCCC(=O)N[C@H](C(=O)N1C[C@H](O)C[C@H]1C(=O)NCc1ccc(-c2scnc2C)cc1)C(C)(C)C [Example 1]", "ng/mL", 2190),
]

====

- ASSAY_SYSTEM: p38δ (Homo sapiens, UniProt O15264)
- Construct: endogenous in cells; host or cells: MDA-MB-231 (intact cells for degradation; cleared cell lysate for CETSA)
- Sequence (O15264 1-365): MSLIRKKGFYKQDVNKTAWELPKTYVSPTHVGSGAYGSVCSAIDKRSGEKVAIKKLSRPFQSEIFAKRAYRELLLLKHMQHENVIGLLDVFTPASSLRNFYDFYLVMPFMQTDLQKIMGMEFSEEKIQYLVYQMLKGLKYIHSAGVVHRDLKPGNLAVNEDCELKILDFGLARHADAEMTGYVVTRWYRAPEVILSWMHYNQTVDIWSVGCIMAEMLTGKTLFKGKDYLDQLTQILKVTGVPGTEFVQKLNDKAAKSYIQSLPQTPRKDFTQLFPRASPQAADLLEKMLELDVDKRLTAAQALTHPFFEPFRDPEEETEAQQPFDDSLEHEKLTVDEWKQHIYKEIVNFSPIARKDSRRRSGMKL
- ASSAY_NOTES: Cellular assay of target protein degradation (MDA-MB-231 cells, ELISA)
- Assay type: cell-based
- Description: Protocol of the cellular assay of target protein degradation (MDA-MB-231 cells, ELISA). For detection Cell Signaling PathScan Sandwich ELISA Catalog#12850 was used. MDA-MB-231 cells and […] were cultured in ATCC DMEM+ATCC FBS and plated 40,000/well 100 μl/well in RPMI P/S with 5% CSS Omega (bovine) serum into a 96 well plate. […] When TMB turned light blue, 100 μl of Stop solution was added, and the mixture was shaken and read at 450 nm. Also read at 562 nm for background subtraction.
REPORTED_ENDPOINT: Dmax (%)

# MOLECULE, READING
measured = [
    ("COc1cc2c(Oc3ccc(NC(=O)C4(C(=O)Nc5ccc(F)cc5)CC4)cc3F)ccnc2cc1OCCOCCOCCC(=O)N[C@H](C(=O)N1C[C@H](O)C[C@H]1C(=O)NCc1ccc(-c2scnc2C)cc1)C(C)(C)C [Ex. 49]", 81),
    ("COc1cc2c(Oc3ccc(NC(=O)C4(C(=O)Nc5ccc(F)cc5)CC4)cc3F)ccnc2cc1OCCCCOCCCCOCC(=O)N[C@H](C(=O)N1C[C@H](O)C[C@H]1C(=O)NCc1ccc(-c2scnc2C)cc1)C(C)(C)C [compound 50]", 18),
    ("COc1cc2c(Oc3ccc(NC(=O)C4(C(=O)Nc5ccc(F)cc5)CC4)cc3F)ccnc2cc1OCCCCOCCCCOc1cc(-c2scnc2C)ccc1CNC(=O)[C@@H]1C[C@@H](O)CN1C(=O)[C@H](C(C)C)N1Cc2ccccc2C1=O [Ex. 45]", 43),
    ("COc1cc2c(Oc3ccc(NC(=O)C4(C(=O)Nc5ccc(F)cc5)CC4)cc3F)ccnc2cc1OCCCOCCOCCC(=O)N[C@H](C(=O)N1C[C@H](O)C[C@H]1C(=O)NCc1ccc(-c2scnc2C)cc1)C(C)(C)C [Ex. 48]", 91),
]

====

- ASSAY_NOTES: Pharmacokinetics of intraperitoneal or intravenous injection in CD1 mice (plasma, LC/MS/MS)
- Assay type: in vivo
- CONDITION_SUMMARY: male, CD1, mouse, plasma, ip, 10 mg/kg, IP 10 mg/kg, 0.25 h, read-out: Conc. Mean

# COMPOUND, UNIT_OF_MEASUREMENT, concentration at 0.25 h
records = [
    ("COc1cc2c(Oc3ccc(NC(=O)C4(C(=O)Nc5ccc(F)cc5)CC4)cc3F)ccnc2cc1OCCCOCCCOCCC(=O)N[C@H](C(=O)N1C[C@H](O)C[C@H]1C(=O)NCc1ccc(-c2scnc2C)cc1)C(C)(C)C [Example 1]", "ng/mL", 2200),
]

====

- ASSAY_NOTES: Pharmacokinetics of intraperitoneal or intravenous injection in CD1 mice (plasma, LC/MS/MS)
- Type: in vivo
- CONDITION_SUMMARY: male, CD1, mouse, plasma, iv, 1 mg/kg, IV 1.0 mg/kg, 0.25 h, read-out: Conc. Mouse 3

# COMPOUND, concentration at 0.25 h
measured = [
    ("COc1cc2c(Oc3ccc(NC(=O)C4(C(=O)Nc5ccc(F)cc5)CC4)cc3F)ccnc2cc1OCCCOCCCOCCC(=O)N[C@H](C(=O)N1C[C@H](O)C[C@H]1C(=O)NCc1ccc(-c2scnc2C)cc1)C(C)(C)C [Example 1]", "0.59 µg/mL"),
]

These measurements were taken from patent US20180353501A1.
